Hello, the source for this data is ChEMBL document CHEMBL1149585, in case you need it.

Readings of Activity for the listed molecules
Tested on: Mus musculus
Experiment: Toxicity in mouse assessed as tail bleeding time at 200 mg/kg, po after 60 mins
Assay type: organism-based
Set-up: dose 200 mg/kg, route oral
Conditions: in vivo, 1 h
Just the number please, in s, no unit attached.

Look over these answered cases.
INSERT INTO results (chem_smiles, reported) VALUES
  ('C[C@@H]1O[C@H](c2ccccc2)OC[C@H]1NC(=O)c1ccccc1', 118.6),
  ('O=C(Cc1ccccc1)N[C@H]1CO[C@H](c2ccc([N+](=O)[O-])cc2)OC1', 117.6),
  ('Cc1ccc([C@H]2OC[C@H](NC(=O)Cc3ccccc3)CO2)cc1', 118.4),
  ('C[C@@H]1O[C@@H](c2ccc([N+](=O)[O-])cc2)OC[C@H]1NC(=O)c1ccccc1', 117.2);

Problem: Identify Activity associated with the molecule `C[C@@H]1O[C@@H](c2ccc([N+](=O)[O-])cc2)OC[C@H]1NC(=O)Cc1ccccc1`
Solution: 117.9

Problem: Fill in Activity for record `C[C@@H]1O[C@@H](c2cccc([N+](=O)[O-])c2)OC[C@H]1NC(=O)Cc1ccccc1`
Solution: 118.5

Problem: # return recorded Activity for entry `Cc1ccc([C@@H]2OC[C@@H](NC(=O)c3ccccc3)[C@H](C)O2)cc1`
Solution: 118.9

Problem: Report Activity, nothing else, for this molecule: `O=C(N[C@H]1CO[C@@H](c2ccc(Cl)cc2)OC1)c1ccccc1`
Solution: 120.9

Problem: Tell me its Activity given `O=C(N[C@H]1CO[C@@H](c2ccc([N+](=O)[O-])cc2)OC1)c1ccccc1` as the entry.
Solution: 120.6

###

# Lookup of reported Activity keyed by entry
Tested on: Mus musculus
Experiment: Toxicity in mouse assessed as tail bleeding time at 200 mg/kg, po after 45 mins
Assay type: organism-based
Parameters: dose 200 mg/kg, route oral
Settings: in vivo, 0.75 h
Entry rule: numbers only, all in s.

INSERT INTO results (chem_smiles, attribute_measured, reported) VALUES
  ('C[C@@H]1O[C@H](c2ccc([N+](=O)[O-])cc2)OC[C@H]1NC(=O)c1ccccc1', 'Activity', 118.1),
  ('O=C(Cc1ccccc1)N[C@H]1CO[C@@H](c2ccc(Cl)cc2)OC1', 'Activity', 119.2),
  ('Cc1ccc([C@H]2OC[C@H](NC(=O)Cc3ccccc3)CO2)cc1', 'Activity', 118.6),
  ('O=C(N[C@H]1CO[C@H](c2ccc(Cl)cc2)OC1)c1ccccc1', 'Activity', 118.9);

Problem: Determine its reported Activity: `C[C@@H]1O[C@H](c2ccccc2)OC[C@H]1NC(=O)Cc1ccccc1`
Solution: 119

###

Collected Activity values appear next to each entry.
Tested on: Mus musculus
Experiment: Toxicity in mouse assessed as tail bleeding time at 200 mg/kg, po after 45 mins
Assay type: organism-based
Parameters: dose 200 mg/kg, route oral
Conditions: in vivo, 0.75 h
Supply the numeric figure in s, leaving out any unit text.

Problem: Specify reported Activity for the compound shown: `C[C@@H]1O[C@H](c2ccc(Cl)cc2)OC[C@H]1NC(=O)Cc1ccccc1`
Solution: 119.6

Problem: Identify measured Activity corresponding to `O=C(N[C@H]1CO[C@H](c2cccc([N+](=O)[O-])c2)OC1)c1ccccc1`
Solution: 118

Problem: Give the value of Activity reported for the following: `O=C(N[C@H]1CO[C@@H](c2ccc([N+](=O)[O-])cc2)OC1)c1ccccc1`
Solution: 118.7

Problem: Fill in reported Activity for this entry: `O=C(N[C@H]1CO[C@@H](c2cccc([N+](=O)[O-])c2)OC1)c1ccccc1`
Solution: 118.2

Problem: Supply measured Activity of `O=C(N[C@H]1CO[C@H](c2ccc([N+](=O)[O-])cc2)OC1)c1ccccc1` in your reply.
Solution: 117.7

Problem: Name the recorded Activity of the compound listed here: `O=C(Cc1ccccc1)N[C@H]1CO[C@@H](c2ccccc2)OC1`
Solution: 119.3

Problem: Provide Activity value for the following compound: `C[C@H]1O[C@@H](c2ccc(Cl)cc2)OC[C@H]1NC(=O)Cc1ccccc1`
Solution: 119.6

Problem: Give the value of Activity reported for the following: `C[C@@H]1O[C@H](c2ccccc2)OC[C@H]1NC(=O)c1ccccc1`
Solution: 118.9

###

Tested on: Mus musculus
Test: Toxicity in mouse assessed as tail bleeding time at 200 mg/kg, po after 30 mins
Assay type: organism-based
Parameters: dose 200 mg/kg, route oral
Details: in vivo, 0.5 h
Measured Activity accompanies every entry in the list below.
Field format: number, assumed s, no unit text.

Here is how some compounds turned out for Activity.
INSERT INTO results (chem_smiles, reported) VALUES
  ('Cc1ccc([C@H]2OC[C@@H](NC(=O)Cc3ccccc3)[C@H](C)O2)cc1', 117.9),
  ('C[C@@H]1O[C@H](c2ccc([N+](=O)[O-])cc2)OC[C@H]1NC(=O)Cc1ccccc1', 117.8),
  ('O=C(Cc1ccccc1)N[C@H]1CO[C@@H](c2ccccc2)OC1', 118.5),
  ('O=C(Cc1ccccc1)N[C@H]1CO[C@@H](c2ccc([N+](=O)[O-])cc2)OC1', 120.7);

Problem: Quick one: give measured Activity for `O=C(Cc1ccccc1)N[C@H]1CO[C@H](c2ccc(Cl)cc2)OC1`
Solution: 117.9

Problem: Fill in reported Activity for this entry: `Cc1ccc([C@H]2OC[C@@H](NC(=O)c3ccccc3)[C@H](C)O2)cc1`
Solution: 120.9

Problem: Quick one: give measured Activity for `C[C@@H]1O[C@@H](c2ccc([N+](=O)[O-])cc2)OC[C@H]1NC(=O)c1ccccc1`
Solution: 118.4

###

Test system: Mus musculus
Assay: Toxicity in mouse assessed as tail bleeding time at 200 mg/kg, po after 30 mins
Format: organism-based
Design: dose 200 mg/kg, route oral
Conditions: in vivo, 0.5 h
ATTRIBUTE MEASURED: Activity (s)
State the answer as a number, implicitly in s.

Example molecules with recorded Activity:
INSERT INTO assay_data (chem_smiles, measured_target, attribute_measured, reported) VALUES
  ('C[C@@H]1O[C@@H](c2ccc([N+](=O)[O-])cc2)OC[C@H]1NC(=O)Cc1ccccc1', 'Mus musculus', 'Activity', 117.8),
  ('O=C(Cc1ccccc1)N[C@H]1CO[C@H](c2cccc([N+](=O)[O-])c2)OC1', 'Mus musculus', 'Activity', 117.7),
  ('O=C(N[C@H]1CO[C@H](c2cccc([N+](=O)[O-])c2)OC1)c1ccccc1', 'Mus musculus', 'Activity', 118.8),
  ('C[C@@H]1O[C@@H](c2cccc([N+](=O)[O-])c2)OC[C@H]1NC(=O)Cc1ccccc1', 'Mus musculus', 'Activity', 120.1);

Problem: Name the recorded Activity of the molecule listed here: `O=C(Cc1ccccc1)N[C@H]1CO[C@@H](c2ccc(Cl)cc2)OC1`
Solution: 117.9

###

Tested on: Mus musculus
Test: Toxicity in mouse assessed as tail bleeding time at 200 mg/kg, po after 60 mins
Format: organism-based
Parameters: dose 200 mg/kg, route oral
Settings: in vivo, 1 h
ATTRIBUTE MEASURED: Activity (s)
Provide the reading as a plain figure in s.

INSERT INTO results (chem_smiles, readout_units, reported) VALUES
  ('O=C(Cc1ccccc1)N[C@H]1CO[C@H](c2ccccc2)OC1', 's', 117.8),
  ('O=C(N[C@H]1CO[C@@H](c2cccc([N+](=O)[O-])c2)OC1)c1ccccc1', 's', 119.1),
  ('C[C@@H]1O[C@@H](c2cccc([N+](=O)[O-])c2)OC[C@H]1NC(=O)c1ccccc1', 's', 117.4),
  ('C[C@@H]1O[C@@H](c2ccccc2)OC[C@H]1NC(=O)Cc1ccccc1', 's', 118.6),
  ('O=C(Cc1ccccc1)N[C@H]1CO[C@@H](c2cccc([N+](=O)[O-])c2)OC1', 's', 119.2),
  ('Cc1ccc([C@@H]2OC[C@@H](NC(=O)Cc3ccccc3)[C@@H](C)O2)cc1', 's', 119),
  ('C[C@@H]1O[C@H](c2ccc(Cl)cc2)OC[C@H]1NC(=O)c1ccccc1', 's', 118.7),
  ('C[C@@H]1O[C@H](c2cccc([N+](=O)[O-])c2)OC[C@H]1NC(=O)c1ccccc1', 's', 119.5);

Please turn your attention to the following entry.
Problem: Give the value of Activity reported for the following: `C[C@@H]1O[C@H](c2cccc([N+](=O)[O-])c2)OC[C@H]1NC(=O)Cc1ccccc1`
Solution: 118.5

###

Test system: Mus musculus
Assay: Toxicity in mouse assessed as tail bleeding time at 200 mg/kg, po after 60 mins
Format: organism-based
Design: dose 200 mg/kg, route oral
Conditions: in vivo, 1 h
ATTRIBUTE MEASURED: Activity (s)
Write the number in s without appending the unit.

Known Activity results, listed for orientation:
INSERT INTO measurements (chem_smiles, reported) VALUES
  ('O=C(N[C@H]1CO[C@H](c2cccc([N+](=O)[O-])c2)OC1)c1ccccc1', 118.4),
  ('O=C(Cc1ccccc1)N[C@H]1CO[C@@H](c2ccc([N+](=O)[O-])cc2)OC1', 117.6);

Problem: Recall and state the measured Activity for `O=C(Cc1ccccc1)N[C@H]1CO[C@H](c2ccc(Cl)cc2)OC1` .
Solution: 119.5

Problem: Please supply the value of reported Activity for the item `O=C(Cc1ccccc1)N[C@H]1CO[C@@H](c2ccccc2)OC1`
Solution: 117.8

Problem: Consider the compound `O=C(Cc1ccccc1)N[C@H]1CO[C@H](c2cccc([N+](=O)[O-])c2)OC1` and give its recorded Activity.
Solution: 119.2

Problem: Look up and report measured Activity for this entry: `C[C@H]1O[C@@H](c2ccc(Cl)cc2)OC[C@H]1NC(=O)Cc1ccccc1`
Solution: 118.6

Problem: # return recorded Activity for entry `C[C@@H]1O[C@H](c2ccc(Cl)cc2)OC[C@H]1NC(=O)Cc1ccccc1`
Solution: 118.6

Problem: Answer with the recorded Activity for the compound listed here: `Cc1ccc([C@H]2OC[C@@H](NC(=O)c3ccccc3)[C@H](C)O2)cc1`
Solution: 119.8

Problem: Assign Activity to the following record: `C[C@@H]1O[C@H](c2ccc([N+](=O)[O-])cc2)OC[C@H]1NC(=O)Cc1ccccc1`
Solution: 117.9
